All figures here come from patent US10364263B2.

# test_summary: Stability in human plasma
# Type: in vitro ADME
# assay_conditions: human, plasma, Diastereoisomer A (upfield shift in 31P NMR), 37° C., read-out: t1/2, Human Plasma, Diastereoisomer A (converted)
measurement_type: half-life at 3 µM

Solved entries (count: 5):
COC(=O)CCNC(=O)[C@@H]1OP(=O)(N[C@@H](C)C(=O)OC[C@H]2CCC(=O)N2)OCC1(C)C (some centres unmarked); < 9.6 min
COC(=O)CCNC(=O)[C@@H]1OP(=O)(OCOC(=O)OC(C)C)OCC1(C)C (some centres unmarked); > 60 min
C[C@H](NP1(=O)OCC(C)(C)[C@H](C(=O)NCCC(=O)O)O1)C(=O)OCCc1ccccc1 (some centres unmarked); > 60 min
COC(=O)CCNC(=O)[C@@H]1OP(=O)(NCCC(=O)OCc2ccccc2)OCC1(C)C (some centres unmarked); > 60 min
CC(C)(C)C(=O)OCOP1(=O)OCC(C)(C)[C@H](C(=O)NCCC(=O)OCc2ncccn2)O1 (some centres unmarked); > 60 min

Now look at this one.
compound COC(=O)CCNC(=O)[C@@H]1OP(=O)(N[C@H](C)C(=O)OCc2cccnc2)OCC1(C)C (some centres unmarked) , half-life at 3 µM observed: > 60 min

---

# test_summary: Stability in mouse hepatocytes
# Assay type: in vitro ADME
# assay_conditions: t1/2, Mouse Hepatocytes, Diastereoisomer B
measurement_type: half-life at 5 µM

Solved entries (count: 3):
COC(=O)CCNC(=O)[C@@H]1OP(=O)(OCOC(=O)C(C)(C)C)OCC1(C)C (stereo partly drawn); < 15 min
CCC(CC)C(=O)OCOP1(=O)OCC(C)(C)[C@H](C(=O)NCCC(=O)OC)O1 (stereo partly drawn); < 15 min
COC(=O)CCNC(=O)[C@@H]1OP(=O)(OCOC(=O)c2ccc(CN3CCCC3)cc2)OCC1(C)C (stereo partly drawn); < 15 min

molecule COC(=O)CCNC(=O)[C@@H]1OP(=O)(OCOC(C)=O)OCC1(C)C (stereo partly drawn) , half-life at 5 µM observed: < 15 min

molecule CC(C)(C)C(=O)OCOP1(=O)OCC(C)(C)[C@H](C(=O)NCCC(=O)OCc2ccncc2)O1 (stereo in doubt) , half-life at 5 µM observed: < 15 min

molecule COC(=O)CCNC(=O)[C@@H]1OP(=O)(N[C@H](C(=O)OCc2ccccc2)C(C)C)OCC1(C)C (stereo partly drawn) , half-life at 5 µM observed: 24 min

---

# test_summary: Stability in human hepatocytes
# Assay type: in vitro ADME
# assay_conditions: t1/2, Human Hepatocytes, Diastereoisomer A
measurement_type: half-life at 5 µM

COC(=O)CCNC(=O)[C@@H]1OP(=O)(N[C@@H](C)C(=O)OC[C@H]2CCC(=O)N2)OCC1(C)C (stereo partly drawn); > 240 min
COC(=O)CCNC(=O)[C@@H]1OP(=O)(OCCCOCc2ccccc2)OCC1(C)C (stereo partly drawn); 34.2 min

compound COC(=O)CCNC(=O)[C@@H]1OP(=O)(NCCC(=O)OCc2ccccc2)OCC1(C)C (stereo partly drawn) , half-life at 5 µM observed: 18.6 min

compound COC(=O)CCNC(=O)[C@@H]1O[P@@](=O)(OCOC(=O)NCCOC(=O)[C@@H](NC(=O)OCc2ccccc2)C(C)C)OCC1(C)C (single isomer, unassigned) , half-life at 5 µM observed: 36.6 min

---

Documented Papp A→B at 60 min across a set of molecules
# test_summary: Permeability in porcine brain endothelial cell blood-brain barrier model
# Assay type: in vitro ADME
# assay_conditions: pig (endothelial cells), co-cultured with rat astrocytes, pH 7.4, PBECs/As blood-brain barrier model, luminal to basal; Diastereoisomer B; read-out: Papp Diastereoisomer B
Express it in ×10⁻⁶ cm/s; write the number only.

Solved entries (count: 6):
COC(=O)CCNC(=O)[C@@H]1OP(=O)(OCOC(=O)c2cncs2)OCC1(C)C (stereo partly shown) [Compound No. 70]; 2.56
COC(=O)CCNC(=O)[C@@H]1OP(=O)(N[C@@H](C)C(=O)OCc2cccnc2)OCC1(C)C (stereo partly shown) [compound 24]; 0.6
COC(=O)CCNC(=O)[C@@H]1OP(=O)(OCCSC(=O)C(C)(C)C)OCC1(C)C (stereo partly shown) [Compound No. 2-133]; 21
COC(=O)[C@H](C)NP1(=O)OCC(C)(C)[C@H](C(=O)NCCC(=O)OCc2ccncc2)O1 (stereo partly shown) [compound 20]; 3.38
CCc1cc(C(=O)OCO[P@]2(=O)OCC(C)(C)[C@H](C(=O)NCCC(=O)OC)O2)n(C)n1 (single isomer, unassigned) [Compound No. 2-129]; 11.5
COC(=O)CCNC(=O)[C@@H]1OP(=O)(OCOC(=O)c2ccccc2)OCC1(C)C (stereo partly shown) [Compound No. 64]; 20.7

Now look at this one.
molecule COC(=O)CCNC(=O)[C@@H]1OP(=O)(OCOC(=O)C(C)(C)C)OCC1(C)C (stereo partly shown) [Compound No. 65] , Papp A→B at 60 min observed: 18.3

---

# test_summary: Stability in human plasma
# Type: in vitro ADME
# assay_conditions: human, plasma, Diastereoisomer A (upfield shift in 31P NMR), 37° C., read-out: t1/2, Human Plasma, Diastereoisomer A (converted)
measurement_type: half-life at 3 µM

compound COC(=O)CCNC(=O)[C@@H]1OP(=O)(N[C@@H](C)C(=O)OCCc2ccccc2)OCC1(C)C (stereo partly shown) [Compound No. 2] , half-life at 3 µM observed: 0.95 h

compound CC(C)(C)C(=O)OCO[P@@]1(=O)OCC(C)(C)[C@H](C(=O)NCCC(=O)OC2CCNC2)O1 (stereo partly shown) [Compound No. 92] , half-life at 3 µM observed: 0.45 h

compound COC(=O)CCNC(=O)[C@@H]1OP(=O)(OCOC(=O)C2(C(N)=O)CC2)OCC1(C)C (stereo partly shown) [Compound No. 83] , half-life at 3 µM observed: > 1 h

compound COC(=O)CCNC(=O)[C@@H]1OP(=O)(OCOC(=O)C(C)(C)C)OCC1(C)C (stereo partly shown) [Compound No. 65] , half-life at 3 µM observed: > 1 h

compound C[C@H](NP1(=O)OCC(C)(C)[C@H](C(=O)NCCC(=O)OCc2cnccn2)O1)C(=O)OCCc1ccccc1 (stereo partly shown) [compound 39] , half-life at 3 µM observed: > 1 h

compound COC(=O)CCNC(=O)[C@@H]1OP(=O)(N[C@H](C(=O)OCc2ccccc2)C(C)C)OCC1(C)C (stereo partly shown) [compound 13] , half-life at 3 µM observed: > 1 h

compound COC(=O)CCNC(=O)[C@@H]1OP(=O)(N[C@@H](Cc2cccnc2)C(=O)OCCc2ccccc2)OCC1(C)C (stereo partly shown) [compound 36] , half-life at 3 µM observed: > 1 h

---

# test_summary: Stability in mouse plasma
# Assay type: in vitro ADME
# assay_conditions: mouse, plasma
measurement_type: half-life at 3 µM

Solved entries (count: 2):
COC(=O)CCNC(=O)[C@@H]1OP(=O)(N[C@@H](C)C(=O)OC[C@H]2CCC(=O)N2)OCC1(C)C (stereo partly drawn); < 9.6 min
COC(=O)CCNC(=O)[C@@H]1OP(=O)(N[C@@H](C)C(=O)OCc2cc(C)cc(C)c2)OCC1(C)C (stereo partly drawn); < 9.6 min

compound C[C@H](NP1(=O)OCC(C)(C)[C@H](C(=O)NCCC(=O)O)O1)C(=O)OCCc1ccccc1 (stereo partly drawn) , half-life at 3 µM observed: 12 min

---

# test_summary: Permeability in porcine brain endothelial cell blood-brain barrier model
# Assay type: in vitro ADME
# assay_conditions: pig (endothelial cells), co-cultured with rat astrocytes, pH 7.4, PBECs/As blood-brain barrier model, luminal to basal; Diastereoisomer A; read-out: Papp Diastereoisomer A
measurement_type: Papp A→B at 60 min

Solved entries (count: 3):
COC(=O)CCNC(=O)[C@@H]1O[P@](=O)(OCc2ccccc2)OCC1(C)C [compound 54]; 18.1 ×10⁻⁶ cm/s
COC(=O)CCNC(=O)[C@@H]1OP(=O)(N[C@H](C)C(=O)OC)OCC1(C)C (stereo partly shown) [compound 16]; 3.33 ×10⁻⁶ cm/s
COC(=O)CCNC(=O)[C@@H]1OP(=O)(N[C@@H](C)C(=O)OC)OCC1(C)C (stereo partly shown) [compound 5]; 6.27 ×10⁻⁶ cm/s

compound COC(=O)CCNC(=O)[C@@H]1OP(=O)(OCOC(=O)c2cncs2)OCC1(C)C (stereo partly shown) [Compound No. 70] , Papp A→B at 60 min observed: 1.58 ×10⁻⁶ cm/s

compound COC(=O)CCNC(=O)[C@@H]1OP(=O)(NCCc2ccncc2)OCC1(C)C (stereo partly shown) [compound 111] , Papp A→B at 60 min observed: 0.7 ×10⁻⁶ cm/s

compound CC(C)(C)C(=O)OCO[P@@]1(=O)OCC(C)(C)[C@H](C(=O)NCCC(=O)O)O1 [Compound No. 91] , Papp A→B at 60 min observed: 0.45 ×10⁻⁶ cm/s

compound COC(=O)CCNC(=O)[C@@H]1O[P@@](=O)(OCN2C(=O)c3ccccc3S2(=O)=O)OCC1(C)C (single isomer, unassigned) [Compound No. 2-126] , Papp A→B at 60 min observed: 2.74 ×10⁻⁶ cm/s
